System: AMBEL Ragweed, Common
Test: Preemergence herbicidal evaluation, AMBEL
Assay type: in vivo, Ambrosia artemisifolia, L.
Design: scale not given here
Conditions: preemergence, rate 0.125 kg/ha

chemical.structure: COc1ccccc1-n1nnc2cc(F)c(-n3c(=O)cc(C(F)(F)F)n(C)c3=O)cc21
AMBEL herbicidal rating: 9.0
--
chemical.structure: C=CCOc1ccc(C)cc1-n1nnc2cc(F)c(-n3c(=O)cc(C(F)(F)F)n(C)c3=O)cc21
AMBEL herbicidal rating: 5.0
--
chemical.structure: COC(=O)COc1ccc(C)cc1-n1nnc2cc(F)c(-n3c(=O)cc(C(F)(F)F)n(C)c3=O)cc21
AMBEL herbicidal rating: 8.0
--
chemical.structure: Cc1ccc(OCC(=O)O)cc1-n1nnc2cc(F)c(-n3c(=O)cc(C(F)(F)F)n(C)c3=O)cc21
AMBEL herbicidal rating: 3.0
--
chemical.structure: COc1ccc(C)c(-n2nnc3cc(F)c(-n4c(=O)cc(C(F)(F)F)n(C)c4=O)cc32)c1
AMBEL herbicidal rating: 0.0

---

System: AMBEL Ragweed, Common
Assay: Preemergence herbicidal evaluation, AMBEL
Format: in vivo, Ambrosia artemisifolia, L.
Design: scale not given here
Conditions: preemergence, rate 0.125 kg/ha
Parameter: AMBEL herbicidal rating. Scope: all listed entries.

compound: Cn1c(C(F)(F)F)cc(=O)n(-c2cc3c(cc2F)nnn3-c2ccc(OCC(=O)O)cc2)c1=O [Example 44]
AMBEL herbicidal rating: 0.0

compound: CCc1cccc(-n2nnc3cc(F)c(-n4c(=O)cc(C(F)(F)F)n(C)c4=O)cc32)c1 [Example 29]
AMBEL herbicidal rating: 7.0

compound: COc1ccc(C)cc1-n1nnc2cc(F)c(-n3c(=O)cc(C(F)(F)F)n(C)c3=O)cc21 [Example 18]
AMBEL herbicidal rating: 8.0

compound: CCc1ccc(-n2nnc3cc(F)c(-n4c(=O)cc(C(F)(F)F)n(C)c4=O)cc32)cc1COC [Example 28]
AMBEL herbicidal rating: 7.0

compound: Cc1cc(O)ccc1-n1nnc2cc(F)c(-n3c(=O)cc(C(F)(F)F)n(C)c3=O)cc21 [Example 33]
AMBEL herbicidal rating: 0.0

compound: COC(=O)COc1ccc(-n2nnc3cc(F)c(-n4c(=O)cc(C(F)(F)F)n(C)c4=O)cc32)c(C)c1 [Example 39]
AMBEL herbicidal rating: 0.0

compound: COC(=O)COc1ccc(C)c(-n2nnc3cc(F)c(-n4c(=O)cc(C(F)(F)F)n(C)c4=O)cc32)c1 [Example 38]
AMBEL herbicidal rating: 9.0

compound: COCc1ccccc1-n1nnc2cc(F)c(-n3c(=O)cc(C(F)(F)F)n(C)c3=O)cc21 [Example 26]
AMBEL herbicidal rating: 9.0

compound: CCc1ccccc1-n1nnc2cc(F)c(-n3c(=O)cc(C(F)(F)F)n(C)c3=O)cc21 [Example 25]
AMBEL herbicidal rating: 3.5

compound: COc1ccc(Cl)cc1-n1nnc2cc(F)c(-n3c(=O)cc(C(F)(F)F)n(C)c3=O)cc21 [Example 30]
AMBEL herbicidal rating: 6.0

compound: Cc1ccc(-n2nnc3cc(F)c(-n4c(=O)cc(C(F)(F)F)n(C)c4=O)cc32)cc1 [Example 19]
AMBEL herbicidal rating: 9.0

compound: COc1ccc(-n2nnc3cc(F)c(-n4c(=O)cc(C(F)(F)F)n(C)c4=O)cc32)cc1 [Example 27]
AMBEL herbicidal rating: 9.0

compound: COc1ccc(-n2nnc3cc(F)c(-n4c(=O)cc(C(F)(F)F)n(C)c4=O)cc32)c(C)c1 [Example 24]
AMBEL herbicidal rating: 0.0

compound: Cc1ccc(O)c(-n2nnc3cc(F)c(-n4c(=O)cc(C(F)(F)F)n(C)c4=O)cc32)c1 [Example 31]
AMBEL herbicidal rating: 0.0

compound: C#CCOC(=O)COc1ccc(C)c(-n2nnc3cc(F)c(-n4c(=O)cc(C(F)(F)F)n(C)c4=O)cc32)c1 [Example 36]
AMBEL herbicidal rating: 5.0

compound: C#CCOC(=O)COc1ccc(C)cc1-n1nnc2cc(F)c(-n3c(=O)cc(C(F)(F)F)n(C)c3=O)cc21 [Example 40]
AMBEL herbicidal rating: 4.0

---

Tested on: GALAP Galium
Experiment: Postemergence herbicidal evaluation, GALAP
Format: in vivo, Galium aparine
Design: scale not given here
Conditions: 0.008 kg/ha, postemergence spray, rated about two-three weeks after treatment
Parameter: Postemergence herbicidal rating GALAP. Scope: all listed entries.
test.readout: Postemergence herbicidal rating GALAP

chemical.structure: COc1ccc(-n2nnc3cc(F)c(-n4c(=O)cc(C(F)(F)F)n(C)c4=O)cc32)cc1
recorded.number: 1.0
//
chemical.structure: COC(=O)COc1ccccc1-n1nnc2cc(F)c(-n3c(=O)cc(C(F)(F)F)n(C)c3=O)cc21
recorded.number: 1.0
//
chemical.structure: COc1ccc(C)cc1-n1nnc2cc(F)c(-n3c(=O)cc(C(F)(F)F)n(C)c3=O)cc21
recorded.number: 1.0
//
chemical.structure: C#CCOC(=O)COc1ccc(C)cc1-n1nnc2cc(F)c(-n3c(=O)cc(C(F)(F)F)n(C)c3=O)cc21
recorded.number: 1.0
//
chemical.structure: COC(=O)COc1ccc(-n2nnc3cc(F)c(-n4c(=O)cc(C(F)(F)F)n(C)c4=O)cc32)c(C)c1
recorded.number: 0.0
//
chemical.structure: CCc1ccccc1-n1nnc2cc(F)c(-n3c(=O)cc(C(F)(F)F)n(C)c3=O)cc21
recorded.number: 0.0

---

Test system: CASOB Sicklepod
Test: Preemergence herbicidal evaluation, CASOB
Type: in vivo, Cassia obtusifolia, L.
Parameters: scale not given here
Details: preemergence, rate 0.125 kg/ha

molecule: C=CCOc1ccc(C)cc1-n1nnc2cc(F)c(-n3c(=O)cc(C(F)(F)F)n(C)c3=O)cc21 [Example 42]
target: CASOB Sicklepod
CASOB herbicidal rating: 1.0

molecule: Cc1ccc(O)c(-n2nnc3cc(F)c(-n4c(=O)cc(C(F)(F)F)n(C)c4=O)cc32)c1 [Example 31]
target: CASOB Sicklepod
CASOB herbicidal rating: 0.0

molecule: Cc1ccc(OCC(=O)O)cc1-n1nnc2cc(F)c(-n3c(=O)cc(C(F)(F)F)n(C)c3=O)cc21 [Example 37]
target: CASOB Sicklepod
CASOB herbicidal rating: 0.0

molecule: C=CCOc1ccc(-n2nnc3cc(F)c(-n4c(=O)cc(C(F)(F)F)n(C)c4=O)cc32)c(C)c1 [Example 43]
target: CASOB Sicklepod
CASOB herbicidal rating: 0.0

molecule: COc1ccccc1-n1nnc2cc(F)c(-n3c(=O)cc(C(F)(F)F)n(C)c3=O)cc21 [Example 16]
target: CASOB Sicklepod
CASOB herbicidal rating: 9.0

molecule: CCc1ccc(-n2nnc3cc(F)c(-n4c(=O)cc(C(F)(F)F)n(C)c4=O)cc32)cc1 [Example 17]
target: CASOB Sicklepod
CASOB herbicidal rating: 2.3

molecule: COC(=O)COc1ccc(C)cc1-n1nnc2cc(F)c(-n3c(=O)cc(C(F)(F)F)n(C)c3=O)cc21 [Example 34]
target: CASOB Sicklepod
CASOB herbicidal rating: 6.0

molecule: Cc1ccc(-n2nnc3cc(F)c(-n4c(=O)cc(C(F)(F)F)n(C)c4=O)cc32)cc1 [Example 19]
target: CASOB Sicklepod
CASOB herbicidal rating: 1.0

molecule: CC(C)c1ccc(-n2nnc3cc(F)c(-n4c(=O)cc(C(F)(F)F)n(C)c4=O)cc32)cc1 [Example 21]
target: CASOB Sicklepod
CASOB herbicidal rating: 2.0

molecule: COc1ccc(C)c(-n2nnc3cc(F)c(-n4c(=O)cc(C(F)(F)F)n(C)c4=O)cc32)c1 [Example 22]
target: CASOB Sicklepod
CASOB herbicidal rating: 0.0

molecule: CCc1cccc(-n2nnc3cc(F)c(-n4c(=O)cc(C(F)(F)F)n(C)c4=O)cc32)c1 [Example 29]
target: CASOB Sicklepod
CASOB herbicidal rating: 1.0

molecule: Cn1c(C(F)(F)F)cc(=O)n(-c2cc3c(cc2F)nnn3-c2ccc(OCC(=O)O)cc2)c1=O [Example 44]
target: CASOB Sicklepod
CASOB herbicidal rating: 0.0

molecule: Cc1cc(O)ccc1-n1nnc2cc(F)c(-n3c(=O)cc(C(F)(F)F)n(C)c3=O)cc21 [Example 33]
target: CASOB Sicklepod
CASOB herbicidal rating: 0.0

molecule: Cc1ccccc1-n1nnc2cc(F)c(-n3c(=O)cc(C(F)(F)F)n(C)c3=O)cc21 [Example 20]
target: CASOB Sicklepod
CASOB herbicidal rating: 2.0

molecule: Cc1ccc(O)cc1-n1nnc2cc(F)c(-n3c(=O)cc(C(F)(F)F)n(C)c3=O)cc21 [Example 32]
target: CASOB Sicklepod
CASOB herbicidal rating: 0.0

molecule: Cc1ccc(-n2nnc3cc(F)c(-n4c(=O)cc(C(F)(F)F)n(C)c4=O)cc32)cc1C [Example 23]
target: CASOB Sicklepod
CASOB herbicidal rating: 0.0

molecule: COc1ccc(C)cc1-n1nnc2cc(F)c(-n3c(=O)cc(C(F)(F)F)n(C)c3=O)cc21 [Example 18]
target: CASOB Sicklepod
CASOB herbicidal rating: 5.0

molecule: COc1ccc(-n2nnc3cc(F)c(-n4c(=O)cc(C(F)(F)F)n(C)c4=O)cc32)cc1 [Example 27]
target: CASOB Sicklepod
CASOB herbicidal rating: 9.0

molecule: COc1ccc(-n2nnc3cc(F)c(-n4c(=O)cc(C(F)(F)F)n(C)c4=O)cc32)c(C)c1 [Example 24]
target: CASOB Sicklepod
CASOB herbicidal rating: 0.0

molecule: COCc1ccccc1-n1nnc2cc(F)c(-n3c(=O)cc(C(F)(F)F)n(C)c3=O)cc21 [Example 26]
target: CASOB Sicklepod
CASOB herbicidal rating: 7.0

molecule: C#CCOC(=O)COc1ccc(C)c(-n2nnc3cc(F)c(-n4c(=O)cc(C(F)(F)F)n(C)c4=O)cc32)c1 [Example 36]
target: CASOB Sicklepod
CASOB herbicidal rating: 0.0

molecule: COc1ccc(Cl)cc1-n1nnc2cc(F)c(-n3c(=O)cc(C(F)(F)F)n(C)c3=O)cc21 [Example 30]
target: CASOB Sicklepod
CASOB herbicidal rating: 2.0

molecule: COC(=O)COc1ccc(-n2nnc3cc(F)c(-n4c(=O)cc(C(F)(F)F)n(C)c4=O)cc32)c(C)c1 [Example 39]
target: CASOB Sicklepod
CASOB herbicidal rating: 0.0

molecule: C#CCOC(=O)COc1ccc(C)cc1-n1nnc2cc(F)c(-n3c(=O)cc(C(F)(F)F)n(C)c3=O)cc21 [Example 40]
target: CASOB Sicklepod
CASOB herbicidal rating: 4.0

molecule: CCc1ccccc1-n1nnc2cc(F)c(-n3c(=O)cc(C(F)(F)F)n(C)c3=O)cc21 [Example 25]
target: CASOB Sicklepod
CASOB herbicidal rating: 2.0

molecule: COC(=O)COc1ccc(C)c(-n2nnc3cc(F)c(-n4c(=O)cc(C(F)(F)F)n(C)c4=O)cc32)c1 [Example 38]
target: CASOB Sicklepod
CASOB herbicidal rating: 2.0

molecule: COC(=O)COc1ccccc1-n1nnc2cc(F)c(-n3c(=O)cc(C(F)(F)F)n(C)c3=O)cc21 [Example 35]
target: CASOB Sicklepod
CASOB herbicidal rating: 2.0
